# tested system: AfFKBP12 (Aspergillus fumigatus)
# Sequence (Q4WLV6 1-112): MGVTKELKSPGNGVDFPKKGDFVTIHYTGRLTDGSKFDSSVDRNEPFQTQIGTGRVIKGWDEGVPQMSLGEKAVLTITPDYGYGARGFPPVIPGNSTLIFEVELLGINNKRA
observable: Kd (nM)
Hi! Could you send only the number? It should be in nM, unit omitted.

[Q] I would be grateful if you could share the reported Kd for C=CC[C@@H]1/C=C(\C)C[C@H](C)C[C@H](OC)[C@H]2O[C@@](O)(C(=O)C(=O)N3CCCC[C@H]3C(=O)O[C@H](/C(C)=C/[C@@H]3CC[C@@H](O)[C@H](OC)C3)[C@H](C)[C@@H](O)CC1=O)[C@H](C)C[C@@H]2OC [FK506, reference compound] .
[A] 4.7

[Q] What does the data say about its Kd? Entry: C=CCC1C=C(C)CC(C)CC(OC)C2OC(O)(C(=O)C(=O)N3CCCCC3C(=O)OC(C(C)=CC3CCC(O)C(OC)C3)C(C)C(O)CC1=NNC(C)=O)C(C)CC2OC (centres unmarked)
[A] 462

Ref: paper PMC8609367
